Exercise: state measured NO yield for each of the compounds provided.
# assay.info: Prodrug activation assessed as GSH-induced nitric oxide production per mol of the compound by chemiluminescence assay
# Type: physicochemical
Report the value in mol/mol with no unit label.

// sample CCOC(=O)N1CCN(/[N+]([O-])=N/Oc2ccc(C#N)cc2[N+](=O)[O-])CC1 , its NO yield was 2.02

Input CCOC(=O)N1CCN(/[N+]([O-])=N/Oc2ccc([N+](=O)[O-])cc2[N+](=O)[O-])CC1 . Output NO yield: 1.96

Input CCOC(=O)N1CCCN(/[N+]([O-])=N/Oc2ccc(C#N)cc2[N+](=O)[O-])CC1 . Output NO yield: 1.96

Recorded NO yield (compound CCOC(=O)N1CCCN(/[N+]([O-])=N/Oc2ccc([N+](=O)[O-])cc2[N+](=O)[O-])CC1 ): 2

# NO yield (compound: CCOC(=O)N1CCCN(/[N+]([O-])=N/Oc2ccc([N+](=O)[O-])cc2C#N)CC1 ) is 2.01

Note to self: NO yield recorded for CCOC(=O)N1CCN(/[N+]([O-])=N/Oc2ccc([N+](=O)[O-])cc2C#N)CC1 was 2.04
